Parameter Measured: logP

A selection of reference data follows.
Reported logP ( O=C(O)CC1CCCCC1 ) = 2.31

Documented logP of CCC(C)(C)C(=O)O : 1.9

a. CC(C)CCn1cnnn1
b. CCCC(CCC)C(=O)O
Form: Entry with minimum logP (choose one): a / b Answer with the label corresponding to your selection.
a

* * *

Parameter Measured: logP

Answered cases to consult:
// logP value for CCC(CC)CC(=O)O : 2.19

Record CCCCCCCc1nn[nH]n1 , field logP: 2.01

For this molecule ( CCCCC(CCCC)C(=O)O ), measured logP is 3.34

Item: CC1(C(=O)O)CCCCC1 | logP: 2.38

Sure, the documented logP for CCC=C(CCC)C(=O)O is 2.44

Form field logP, entry C/C=C/C(=C\CC)C(=O)O : 2.27

1. CCCCN(CCCC)C(=O)CCC(=O)O
2. CCCC(CC(C)=O)C(=O)O (stereo not drawn)
Of the pair 1 and 2 , name the member with the lesser recorded logP. Label of pick, please.
2
(2: 1.31, 1: 2.3)
